molecular target: T1, TRBC2 peptide (biotinylated) (human, also: biotinylated (site not given here)); assay: TRF assay, scFv on biotin-peptide/neutravidin plate
T1 construct: In the monoclonal screen: biotinylated, 0.5 ug/ml on neutravidin-coated plates; In the polyclonal phage ELISA also presented as BSA or OA conjugate of the C-terminal-cysteine form; also called Bio-TRBC2; biotinylated TRBC2
T1 peptide: VLEDLKNVFPPEVAV
No end group written: not given here.
measure-name: TRBC2 binding (TRF units)

INSERT INTO measurements (binder, measure_name, readout_number) VALUES
  ('CP_03_G02 (scFv, not shown: small tags and cut ends, scFv from pSANG10-3F (His6, tri-FLAG), culture supernatant) scFv: EVQLVQSGAEVKKPGSSVKVSCKASGGTFSSYAISWVRQAPGQGLEWMGIINPSGGSTSYAQKFQGRVTMTRDTSTSIVYMELSSLRSEDTAVYYCARGVWNSGSYLGFDYWGQGTLVTVSSGGGGSGGGGSGGGASDIQMTQSPSSLSASVGDRVTITCQASQDISNYLNWYQQKPGKAPKLLIYAASSLQSGVPSRFSGSGSGTDFTLTISSLQPEDFATYYCQQSYSTPLTFGGGTKLEIKRTAAA', 'TRBC2 binding', 152000),
  ('CP_03_C12 (scFv, not shown: small tags and cut ends, scFv from pSANG10-3F (His6, tri-FLAG), culture supernatant) scFv: EVQLVQSGAEVKKPGASVKVSCKASGYTFTGYYMHWVRQAPGQGLEWMGWINPNSGGTNYAQKFQGRVTMTRDTSISTAYMELSSLRSEDTAVYYCARDTGPIDYWGQGTMVTVSSGGGGSGGGGSGGGASDIVMTQTPLSLSVTPGQPASISCKSSQSLLHSDGKTYLYWYLQKPGQPPQLLVYEVSNRFSGVPDKFSGSGSGTDFTLKISRVEAEDVGVYYCMQGIQLPPTFGGGTKVDIKRTAAA', 'TRBC2 binding', 167000);
